Molecular target: T1, human NPRA (human, UniProt P16066 33-1061)
T1 sequence (looked up): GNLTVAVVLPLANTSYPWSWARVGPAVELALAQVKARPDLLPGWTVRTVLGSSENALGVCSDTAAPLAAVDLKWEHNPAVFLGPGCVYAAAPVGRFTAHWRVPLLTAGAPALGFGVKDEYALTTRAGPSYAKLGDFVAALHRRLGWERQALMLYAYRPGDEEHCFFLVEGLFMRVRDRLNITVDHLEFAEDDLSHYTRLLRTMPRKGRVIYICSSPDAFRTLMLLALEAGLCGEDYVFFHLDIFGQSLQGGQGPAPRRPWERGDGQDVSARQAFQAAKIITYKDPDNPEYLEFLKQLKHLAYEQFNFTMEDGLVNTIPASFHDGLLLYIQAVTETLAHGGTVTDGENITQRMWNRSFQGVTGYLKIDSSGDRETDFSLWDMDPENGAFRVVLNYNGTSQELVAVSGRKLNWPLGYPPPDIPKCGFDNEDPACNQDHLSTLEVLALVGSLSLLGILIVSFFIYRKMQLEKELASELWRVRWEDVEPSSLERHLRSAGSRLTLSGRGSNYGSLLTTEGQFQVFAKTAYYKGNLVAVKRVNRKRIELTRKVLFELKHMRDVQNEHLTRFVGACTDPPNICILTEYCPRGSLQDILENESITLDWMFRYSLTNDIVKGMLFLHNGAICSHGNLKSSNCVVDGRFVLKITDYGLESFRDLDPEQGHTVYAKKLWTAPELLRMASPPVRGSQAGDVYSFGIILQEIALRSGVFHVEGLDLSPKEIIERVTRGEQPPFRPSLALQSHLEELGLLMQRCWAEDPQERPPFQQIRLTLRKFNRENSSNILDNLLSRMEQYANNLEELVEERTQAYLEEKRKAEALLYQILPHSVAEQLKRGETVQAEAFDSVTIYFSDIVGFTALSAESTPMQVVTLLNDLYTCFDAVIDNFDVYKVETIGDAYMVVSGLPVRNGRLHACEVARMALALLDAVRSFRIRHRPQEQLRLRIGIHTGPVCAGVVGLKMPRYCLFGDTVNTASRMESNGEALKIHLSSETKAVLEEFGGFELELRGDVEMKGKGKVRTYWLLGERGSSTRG
Test: cell-based or functional assay
Numbered stars: 1 amine (or outer) side, 2 acyl side, 3 side chain; on linkers, the order of the positions; unused ones are H or OH. Bridge positions count the residues as written; N and C are the ends. Square brackets hold non-standard residues; d marks the D form. * marks the point of attachment. thioacetal = thioacetal linkage between two cysteines (intrachain bond at the bracketed Cys); C20 diacid = O=C(O)CCCCCCCCCCCCCCCCCCC(=O)*; C16 diacid = O=C(O)CCCCCCCCCCCCCCC(=O)*; γGlu = O=C(O)[C@H](CCC(=O)[*:2])N[*:1]; 4Pal = N[C@@H](Cc1ccncc1)C(=O)O; βAla = NCCC(=O)O
Measured cGMP Assay (EC50, pM) w/BSA, listed per entry for reference.
Field: numeric (pM). Do not append units.

binder	cGMP Assay (EC50, pM) w/BSA
SXRRSSCFGGRIDRIGHQSGLGCPSFRHGGKSSGAPPPS (HOOC-(CH2)18-CO-(γGlu)-EKEKEKG-(AEEA)4-S-4Pal-RRSS[CFGGRIDRIGHQSGLGC]PSFRHGGKSSGAPPPS-NH2; thioacetal linkage between the bracketed Cys) [Example 83]	38400
{C16 diacid}-[γGlu]EKEKEKGEK[βAla]RSSCFGGRIDRIGHYSGLGCPSFRHGGKSSGAPPPS-NH2 (bridge 15-31 via thioacetal) [Example 73]	5820
{C20 diacid}-[γGlu]EKEKEKGS[4Pal]KRSSCFGGKIDRIGHQSGLGCPSFRHKITAKEDE-NH2 (disulfide 15-31) [Example 34]	26100

Recorded cGMP Assay (EC50, pM) w/BSA for {C20 diacid}-[γGlu]EKEKEKGS[4Pal]RRSSCFGGRIDRIGHQSGLGCPSFRHGGKSSGAPPPS-NH2 (bridge 15-31 via thioacetal) [Example 67] , please?
139000

What would you report for SXRRSSCFGGRIDRIGHYSGLGCPSFRHGSPSSGAPPPS (HOOC-(CH2)18-CO-(γGlu)-EKEKEKG-(AEEA)6-S-4Pal-RRSS[CFGGRIDRIGHYSGLGC]PSFRHGSPSSGAPPPS-NH2; thioacetal linkage between the bracketed Cys) [Example 96] ?
12700

What would you report for SXRRSSCFGKRIDRIGHQSGLGCPSFRHGGKSSGAPPPS (HOOC-(CH2)18-CO-(γGlu)-EKEKEKG-(AEEA)8-S-4Pal-RRSS[CFGKRIDRIGHQSGLGC]PSFRHGGKSSGAPPPS-NH2; thioacetal linkage between the bracketed Cys) [Example 87] ?
3380

What would you report for EKXRSSCFGGKIDRIGHYSGLGCPSFRHGSPSSGAPPPS (HOOC-(CH2)18-CO-(γGlu)-EKEKEKG-PEG24-EK-βAla-RSS[CFGGKIDRIGHYSGLGC]PSFRHGSPSSGAPPPS-NH2; thioacetal linkage between the bracketed Cys) [Example 6] ?
33300

What would you report for {C20 diacid}-[γGlu]EKEKEKGEKGRSSCFGGRIDRIGHYSGLGCPSLRHGGPSSGAPPPS-NH2 (disulfide 15-31) [Example 51] ?
11100

What would you report for XEKEKEKGSXRRSSCFGGRIDRIGHQSGLGCPSFRHGGPSSGAPPPS (HOOC-(CH2)18-CO-(γGlu)-EKEKEKGS-4Pal-RRSS[CFGGRIDRIGHQSGLGC]PSFRHGGPSSGAPPPS-NH2; disulfide linkage between the bracketed Cys) [Example 1] ?
11600

What would you report for {C20 diacid}-[γGlu]EKEKEKGEK[βAla]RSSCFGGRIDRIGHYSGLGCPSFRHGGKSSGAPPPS-NH2 (bridge 15-31 via thioacetal) [Example 74] ?
171000
